Measured Net cell counts of cells showing positive internalization, listed per entry for reference.
# Tested on: MDA-MD-231 STn cells
# ASSAY PROTOCOL: Antibody internalization by fluorescence microscopy cell counts, STn+ cells
# Format: cell-based, human
# CONDITIONS: 10 μg/ml antibody, 30 min at 37° C.
# Procedure: 6-well culture dishes were prepared with collagen-coated coverslips in the center of 4 wells of each dish. Wells were seeded with either 10^5 cells/well of MDA-MD-231 cells or with 10^6 cells/well of MDA-MD-231 STn cells (expressing STn) and cultured for 24 hours. 10 μg/ml antibody solutions were prepared in cell culture media. […] After incubation, cells were prepared for microscopy. […] Cells were rinsed again in PBS and mounted for fluorescence microscopy.
QUANTITY KIND: Net cell counts of cells showing positive internalization

molecule="2D4: anti-STn mouse monoclonal, IgG2b κ, from mouse #4407; VH SEQ ID NO: 10, VL SEQ ID NO: 11 (antibody, V domains shown) VH: QVQLQESGPGLVAPSQSLSITCTVSGFSLISYGVNWVRQPPGKGLEWLGVIWGDGSTNYQSALISRLIISKDNSKSQVFLKLNSLQTDDTATYYCTKGFAYWGQGTLVTVSA VL: QIVLTQSPAIMSASPGEKVTMTCSASSSVSYMHWFQQKSGTSPKRWIYDTSKLASGVPARFSGSGSGTSYSLTISSMEAEDAATYYCQQWSSNLLTFGAGTKLELK" obs_value=413
molecule="8C11: anti-STn mouse monoclonal, IgG2b κ, from mouse #4407; VH SEQ ID NO: 8, VL SEQ ID NO: 9 (antibody, V domains shown) VH: QVQLKESGPGLVAPSQSLSITCTVSGFSLTSYGVSWVRQPPGKGLEWLGVIWGDGSTNYHSALISRLIISKDNSKSQVFLKLNSLQTDDTATYYCTKGFTYWGQGTLVTVSA VL: QIVLTQSPAIMSASPGEKVTMTCSASSSVSYMHWYQQKSGTSPKRWIFDTSKLASGVPARFSGSGSGTSYSLTISSMEAEDAATYYCQQWSSNLLTFGAGTKLELK" obs_value=297
molecule="7G9: anti-STn mouse monoclonal, IgG2b κ, from mouse #4407; VH SEQ ID NO: 12, VL SEQ ID NO: 9 (antibody, V domains shown) VH: QVQLKESGPGLVAPSQNLSITCTVSGFSLTSYGVNWVRQPPGKGLEWLGVIWGDGSTNYHSALISRLIISKENSKSQVFLKLNSLQTNDTATYYCTKGFVYWGQGTLVTVSA VL: QIVLTQSPAIMSASPGEKVTMTCSASSSVSYMHWYQQKSGTSPKRWIFDTSKLASGVPARFSGSGSGTSYSLTISSMEAEDAATYYCQQWSSNLLTFGAGTKLELK" obs_value=154
molecule="10A5: anti-STn mouse monoclonal, IgG2c κ, from mouse #4406; VH SEQ ID NO: 6, VL SEQ ID NO: 7 (antibody, V domains shown) VH: QVQLKESGPGLVAPSQSLSITCTVSGFSLTSYGVSWVRQPPGKGLEWLGVIWGDGSTNYHSSLISRLSISKDNSKSQVFLKLNSLQTDDTATYYCARAFVYWGQGTLVTVSA VL: QIVLTQSPAIMSASPGEKVTMTCSASSSVSYIHWYQQKSGTSPKRWIYDTSKLASGVPARFSGSGSGTSYSLTISSMEAEDAATYYCQQWSSNPPMLTFGAGTKLELK" obs_value=346
